- System: MDA-MB-231/ATCC
- PROTOCOL: NCI 60-cell drug screen, Breast Cancer MDA-MB-231/ATCC
- Format: cell-based, human
- RUN_PARAMETERS: 1.00E−5 Molar
With a cut-off of 60%, any Growth Percent, MDA-MB-231/ATCC strictly below it is called 1; any Growth Percent, MDA-MB-231/ATCC meeting it or above is called 0.

| LINE_NOTATION | SYSTEM_NAME | CLASS |
| --- | --- | --- |
| O=C1c2ccccc2C(=O)c2c1ccc1nc(S)[nH]c21 | MDA-MB-231/ATCC | 0 |
| CN(C)CCCSc1nc2ccc3c(c2[nH]1)C(=O)c1ccccc1C3=O | MDA-MB-231/ATCC | 1 |
| O=C1c2ccccc2C(=O)c2c1ccc1nc3n(c21)CCS3 | MDA-MB-231/ATCC | 0 |
| O=C1c2ccccc2C(=O)c2c1ccc1nc(SCCN3CCCC3)[nH]c21 | MDA-MB-231/ATCC | 0 |
| CCSc1nc2ccc3c(c2[nH]1)C(=O)c1ccccc1C3=O | MDA-MB-231/ATCC | 0 |

Query string: Here's an entry: `CCCSc1nc2ccc3c(c2[nH]1)C(=O)c1ccccc1C3=O` . Is its Growth Percent, MDA-MB-231/ATCC below 60%?
Result string: 1
